- SYSTEM UNDER TEST: His-GST-TVMV-hRIPK1(1-324) (Homo sapiens (Human))
- Sequence (Q13546 1-324): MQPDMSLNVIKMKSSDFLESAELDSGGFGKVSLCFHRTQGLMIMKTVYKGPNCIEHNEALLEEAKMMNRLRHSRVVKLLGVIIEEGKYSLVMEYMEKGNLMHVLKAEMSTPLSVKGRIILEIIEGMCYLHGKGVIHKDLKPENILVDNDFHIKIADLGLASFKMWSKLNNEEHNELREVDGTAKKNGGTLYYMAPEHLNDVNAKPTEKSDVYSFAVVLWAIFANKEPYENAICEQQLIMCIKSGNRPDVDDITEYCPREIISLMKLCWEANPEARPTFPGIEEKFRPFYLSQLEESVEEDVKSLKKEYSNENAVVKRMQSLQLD
- PROTOCOL SUMMARY: RIPK1 HTRF Binding Assay
- EXPERIMENTAL CONDITIONS: HTRF binding, 1 h at rt; read-out: RIPK1 (IC50)
- Protocol: A solution was prepared containing 0.2 nM Anti GST-Tb (Cisbio, 61GSTTLB), 90.6 nM probe and 1 nM His-GST-TVMV-hRIPK1(1-324) in FRET Buffer (20 mM HEPES, 10 mM MgCl2, 0.015% Brij-35, 4 mM DTT, 0.05 mg/mL BSA). […] FRET was measured using the EnVision plate reader (Excitation: 340 nm, Emission: 520 nm/[…]). Total signal (0% inhibition) was calculated from wells containing 10 nL DMSO only. […]
Where a name gives a salt, the structure may show the parent alone.
Below, each of the compounds is paired with its reported IC50 value.
Your answer should be a plain number; it is taken to be in nM.

# COMPOUND, IC50 (nM)
measured = [
    ("[2H]C([2H])([2H])Oc1ncc(-c2ccc3nc(NC(C)=O)cn3n2)cc1C(=O)NCc1cc(OC(F)(F)F)ccc1F [Example 58]", 14),
    ("CC(=O)Nc1cn2nc(-c3ccc(C(F)(F)F)c(C(=O)NCc4cc(C(F)(F)F)ccc4F)c3)ccc2n1 [Example 385]", 57),
    ("CC(=O)Nc1cn2nc(-c3cnc(Cl)c(C(=O)NC(C)c4cc(C(F)(F)F)ccc4F)c3)ccc2n1 (centres unmarked) [Example 270]", 23),
    ("[2H]C([2H])([2H])[C@@H](NC(=O)c1cc(-c2ccc3nc(NC(C)=O)cn3n2)cnc1C)c1cc(C(F)(F)F)ccc1F [Example 197]", 72),
    ("CCC(=O)Nc1cn2nc(-c3cnc(OC)c(C(=O)NCc4cc(OCC5CC5)ccc4F)c3)ccc2n1 [Example 250]", 18),
    ("COc1ncc(-c2ccc3nc(NC(C)=O)cn3n2)cc1C(=O)NCc1c(F)cccc1OC1CCOCC1 [Example 128, TFA]", 9),
    ("COc1ncc(-c2ccc3nc(NC(C)=O)cn3n2)cc1C(=O)NCc1ncccc1OC(C)C1CC1 (centres unmarked) [Example 136]", 17),
    ("CC(=O)Nc1cn2nc(-c3ccc(C)c(C(=O)NCc4cc(-c5cnn(C6CC6)c5)ccc4F)c3F)ccc2n1 [Example 409]", 2),
]

Please provide the recorded IC50 for COc1ncc(-c2ccc3nc(NC(C)=O)cn3n2)cc1C(=O)NCc1c(F)cc(F)cc1OCC1CC1 [Example 150] , tested on His-GST-TVMV-hRIPK1(1-324) (Homo sapiens (Human)).
18

Please provide the recorded IC50 for [2H]C([2H])(Oc1c(F)cc(F)cc1CNC(=O)c1cc(-c2ccc3nc(NC(=O)CC)cn3n2)cnc1OC)C1CC1 [Example 243] , tested on His-GST-TVMV-hRIPK1(1-324) (Homo sapiens (Human)).
2

Please provide the recorded IC50 for COc1ncc(-c2ccc3nc(NC(C)=O)cn3n2)cc1C(=O)NCc1c(F)cccc1OC1CCCC1 [Example 156] , tested on His-GST-TVMV-hRIPK1(1-324) (Homo sapiens (Human)).
2

Please provide the recorded IC50 for CC(=O)Nc1cn2nc(-c3cc(C(=O)N[C@@H](C)c4cc(OC(F)(F)F)ccc4F)cnc3C)ccc2n1 [Example 228] , tested on His-GST-TVMV-hRIPK1(1-324) (Homo sapiens (Human)).
16

Please provide the recorded IC50 for COc1ncc(-c2ccc3nc(NC(C)=O)cn3n2)cc1C(=O)NCc1cc(F)cc(F)c1OC1CCCOC1 (centres unmarked) [Example 99] , tested on His-GST-TVMV-hRIPK1(1-324) (Homo sapiens (Human)).
6

Reference source for all entries: patent US11440913B2
